Let's look at some compounds and their measured melting point.

Recorded results for 9 compounds are shown here.
INSERT INTO measurements (compound, assay_readout, result) VALUES
  ('CCS(=O)(=O)Nc1cc(-c2ncnc(OC)c2Cl)c(F)cc1C#N', 'melting point', '149 to 150 °C'),
  ('CCS(=O)(=O)Nc1cc(-c2ncnc(C(F)F)c2Cl)c(Cl)cc1Cl', 'melting point', '140 to 142 °C'),
  ('CCS(=O)(=O)N(C(C)=O)c1cc(-c2ncnc(C(F)F)c2Cl)c(F)cc1C#N [J-14]', 'melting point', '123 to 124 °C'),
  ('CCS(=O)(=O)Nc1cc(C2(NC)NC=NC=C2Cl)c(F)cc1C#N (stereo not shown)', 'melting point', '211 to 212 °C'),
  ('CCS(=O)(=O)N(C(C)=O)c1cc(-c2ncnc(C(F)F)c2Cl)c(F)cc1C#N [D-27]', 'melting point', '121 to 122 °C'),
  ('COC(=O)c1cc(-c2ncnc(C(F)F)c2Cl)c(F)cc1Cl', 'melting point', '100 to 101 °C'),
  ('CCS(=O)(=O)Nc1cc(-c2ncnc(C(F)F)c2Cl)c(F)cc1Cl', 'melting point', '138 to 139 °C'),
  ('C#CCOc1cc(-c2ncnc(C(Cl)Cl)c2Cl)c(F)cc1Cl', 'melting point', '86 to 88 °C'),
  ('COC(=O)c1cc(-c2ncnc(C)c2C#N)c(F)cc1Cl', 'melting point', '142 to 144 °C');

Let's switch to this compound now.
[Q] Which measured melting point value corresponds to `COc1cc(-c2ncnc(OC)c2C#N)c(F)cc1Cl` ?
[A] 183 to 185 °C

----------
Let's look at some compounds and their measured melting point.

INSERT INTO results (compound, result) VALUES
  ('CCS(=O)(=O)Nc1cc(-c2ncnc(Cl)c2Cl)c(F)cc1C#N [H-16]', '149 to 150 °C'),
  ('Fc1cc(Cl)c(OC(F)F)cc1-c1ncnc(C(F)F)c1Cl [D-7]', '56 to 57 °C'),
  ('CC(C)NS(=O)(=O)c1cc(-c2ncnc(C(F)F)c2Cl)c(F)cc1Cl [D-50]', '172 to 175 °C');

[Q] Which measured melting point value corresponds to CC(=O)Nc1cc(-c2ncnc(C(F)F)c2Cl)c(F)cc1C#N [D-21] ?
[A] 160 to 162 °C

[Q] And Cc1ncnc(-c2ccc(Cl)cc2F)c1Cl [E-1] ?
[A] 77 to 79 °C

[Q] And COc1ncnc(-c2cc(NS(C)(=O)=O)c(C#N)cc2F)c1C [J-16] ?
[A] 218 to 220 °C

[Q] And C#CCOc1cc(-c2ncnc(C)c2C)c(F)cc1Cl [J-3] ?
[A] 131 to 133 °C

[Q] And C#CCOc1cc(-c2ncnc(C(F)(F)F)c2Cl)c(F)cc1Cl [A-3] ?
[A] 112 to 113 °C

[Q] And CCS(=O)(=O)Nc1cc(-c2ncnc(OC)c2C#N)c(F)cc1C#N [K-3] ?
[A] 187 to 189 °C

[Q] And CCS(=O)(=O)N(C(C)=O)c1cc(-c2ncnc(C(F)(F)F)c2Cl)c(F)cc1C#N [A-23] ?
[A] 144 to 146 °C

[Q] And C#CCOc1cc(-c2ncnc(C(F)(F)F)c2C)c(F)cc1Cl [J-7] ?
[A] 90 to 92 °C

[Q] And COc1cc(-c2ncnc(C(F)(F)F)c2C)c(F)cc1Cl [J-5] ?
[A] 144 to 146 °C

[Q] And CCS(=O)(=O)Nc1cc(-c2ncnc(C(F)F)c2Cl)c(F)cc1C#N [D-26] ?
[A] 200 to 202 °C

[Q] And CCS(=O)(=O)Nc1cc(-c2ncnc(C)c2Cl)c(F)cc1C#N [E-10] ?
[A] 182 to 184 °C

[Q] And C#CCSc1cc(-c2ncnc(C(F)F)c2Cl)c(F)cc1Cl [D-48] ?
[A] 95 to 97 °C

[Q] And COc1cc(-c2ncnc(OC)c2Cl)c(F)cc1Cl [H-1] ?
[A] 142 to 143 °C

[Q] And COC1(F)C=C(Cl)C=CC1c1ncnc(C)c1C (stereo not drawn) [J-1] ?
[A] 156 to 157 °C

[Q] And CCS(=O)(=O)Nc1cc(-c2ncnc(C(C)C)c2Cl)c(F)cc1C#N [E-13] ?
[A] 160 to 162 °C
